targetDesc: IKZF1 (Homo sapiens, UniProt Q13422+Q96SW2)
Construct: endogenously expressing IKZF1 with HiBiT fusion tag via CRISPR; endogenous in cells; host or cells: NCIH929.11 (CRISPR knock-in)
protocolText: HiBiT degradation assay, NCIH929.11 (HiBiT-IKZF1) cells
Format: cell-based
measurementConditions: read-out: HiBiT-Degradation NCHI929.11 IKZF1 6 hours Emax, NCHI929.11 cells
measuredMetric: Emax

{"compound": "N#Cc1ccc(N2CCN(Cc3ccc(Cc4ccc5c6c(cccc46)C(=O)N5[C@H]4CCC(=O)NC4=O)cc3)CC2)c(F)c1 [Compound 78]", "observedValue": "< 45%"}
{"compound": "O=C1CCC(N2C(=O)c3ccc(CNCc4cc(F)ccc4F)c4cccc2c34)C(=O)N1 (centres unmarked) [Compound 155]", "observedValue": "45 to 60%"}
{"compound": "O=C1CCC(N2C(=O)c3ccc(Br)c4cccc2c34)C(=O)N1 (centres unmarked) [Compound 224]", "observedValue": "60 to 95%"}
{"compound": "CCOC(=O)c1cc(Cc2ccc3c4c(cccc24)N(C2CCC(=O)NC2=O)C3=O)ccc1F (centres unmarked) [Compound 69]", "observedValue": "60 to 95%"}
{"compound": "COC(=O)c1ccc(Nc2ccc3cccc4c3c2C(=O)N4C2CCC(=O)NC2=O)cc1 (centres unmarked) [Compound 186]", "observedValue": "60 to 95%"}
{"compound": "O=C1CCC(N2C(=O)c3ccc(CN4CC(Oc5ccccc5)C4)c4cccc2c34)C(=O)N1 (centres unmarked) [Compound 158]", "observedValue": "< 45%"}
{"compound": "N#Cc1ccc(Cc2ccc3c4c(cccc24)N(C2CCC(=O)NC2=O)C3=O)cc1 (centres unmarked) [Compound 66]", "observedValue": "60 to 95%"}
{"compound": "CCOc1ccc(Cc2ccc3c4c(cccc24)N(C2CCC(=O)NC2=O)C3=O)cc1 (centres unmarked) [Compound 68]", "observedValue": "60 to 95%"}

====

targetDesc: CRBN-NanoLuc® fusion protein in 293T cells (Homo sapiens, UniProt Q96SW2)
Construct: expressed in transfected cells; host or cells: 293T (line named 293T.116)
protocolText: NanoBRET assay: competitive displacement of pomalidomide-NanoBRET tracer from CRBN-NanoLuc in 293T.116 cells
Type: binding
measurementConditions: 2 h at 37° C., tracer at 300 nM
pIC50: −log10 of the molar value.
measuredMetric: pIC50

{"compound": "O=C1CCC(N2C(=O)c3ccc(Br)c4cccc2c34)C(=O)N1 (centres unmarked)", "observedValue": 7.40}
{"compound": "N#Cc1ccc2c3c(cccc13)N(C1CCC(=O)NC1=O)C2=O (centres unmarked)", "observedValue": 7.22}

====

targetDesc: SALL4 (Homo sapiens, UniProt Q96SW2+Q9UJQ4)
protocolText: HiBiT degradation assay, KELLY.2 (SALL4-HiBiT) cells
Format: cell-based
measurementConditions: read-out: HiBiT-Degradation KELLY.2 SALL4 6 hours Emax, KELLY.2 cells
measuredMetric: Emax

{"compound": "O=C1CCC(N2C(=O)c3cccc4c(Cc5cnn(C6CCN(C(=O)C7(C(F)(F)F)CCC7)CC6)c5)ccc2c34)C(=O)N1 (centres unmarked)", "observedValue": "< 45%"}
{"compound": "CCOc1ccc(Cc2ccc3c4c(cccc24)N(C2CCC(=O)NC2=O)C3=O)cc1 (centres unmarked)", "observedValue": "60 to 95%"}
{"compound": "CCOC(=O)c1ccc(Cc2ccc3c4c(cccc24)N(C2CCC(=O)NC2=O)C3=O)cc1 (centres unmarked)", "observedValue": "< 45%"}
{"compound": "CCOC(=O)c1cccc(Cc2ccc3c4c(cccc24)N(C2CCC(=O)NC2=O)C3=O)c1 (centres unmarked)", "observedValue": "60 to 95%"}
{"compound": "CCOc1ccc(Cc2ccc3c4c(cccc24)N(C2CCC(=O)NC2=O)C3=O)c(F)c1 (centres unmarked)", "observedValue": "60 to 95%"}
{"compound": "CN1CC(c2ccc3c4c(cccc24)N(C2CCC(=O)NC2=O)C3=O)C1 (centres unmarked)", "observedValue": "< 45%"}
{"compound": "CC1(n2cc(Cc3ccc4c5c(cccc35)C(=O)N4C3CCC(=O)NC3=O)cn2)CCN(c2ncccc2F)CC1 (centres unmarked)", "observedValue": "< 45%"}
{"compound": "O=C1CCC(N2C(=O)c3ccc(CNCc4cc(F)ccc4F)c4cccc2c34)C(=O)N1 (centres unmarked)", "observedValue": "< 45%"}

====

targetDesc: GSPT1 (Homo sapiens, UniProt P15170+Q96SW2)
protocolText: HiBiT degradation assay, 293T.114 cells, GSPT1
Assay type: cell-based
measurementConditions: 293T.114 cells, 24 hours; read-out: HiBiT-Degradation 293T.114 GSPT1 24 hours Emax
Overview of reported Emax across a group of compounds:

{"compound": "O=C1CCC(N2C(=O)c3ccc(CNCCc4ccc(Cl)cc4)c4cccc2c34)C(=O)N1 (centres unmarked) [Compound 157]", "Emax": "60 to 95%"}
{"compound": "N#Cc1ccc(Cc2ccc3c4c(cccc24)N(C2CCC(=O)NC2=O)C3=O)cc1 (centres unmarked) [Compound 66]", "Emax": "60 to 95%"}
{"compound": "CC(C)OC1CCN(Cc2cc3c4c(cccc4c2)N(C2CCC(=O)NC2=O)C3=O)CC1 (centres unmarked) [Compound 161]", "Emax": "60 to 95%"}
{"compound": "O=C1CCC(N2C(=O)c3ccc(CNCc4cc(F)ccc4F)c4cccc2c34)C(=O)N1 (centres unmarked) [Compound 155]", "Emax": "60 to 95%"}
{"compound": "O=C1CCC(N2C(=O)c3ccc(CN4CC(Oc5ccccc5)C4)c4cccc2c34)C(=O)N1 (centres unmarked) [Compound 158]", "Emax": "< 45%"}

====

targetDesc: SALL4 (Homo sapiens, UniProt Q96SW2+Q9UJQ4)
protocolText: HiBiT degradation assay, KELLY.2 (SALL4-HiBiT) cells
Assay type: cell-based
measurementConditions: KELLY.2 cells, 6 hours
Overview of reported DC50 across a group of compounds:
measuredMetric: DC50

{"compound": "CCOc1ccc(Cc2ccc3c4c(cccc24)N(C2CCC(=O)NC2=O)C3=O)c(F)c1 (centres unmarked) [Compound 60]", "measuredMetric": "DC50", "observedValue": "> 10000 nM"}
{"compound": "N#Cc1ccc(N2CCN(Cc3ccc(Cc4ccc5c6c(cccc46)C(=O)N5[C@H]4CCC(=O)NC4=O)cc3)CC2)c(F)c1 [Compound 78]", "measuredMetric": "DC50", "observedValue": "< 100 nM"}
{"compound": "O=C1CCC(N2C(=O)c3ccc(N4CCc5ccccc54)c4cccc2c34)C(=O)N1 (centres unmarked) [Compound 209]", "measuredMetric": "DC50", "observedValue": "< 100 nM"}
{"compound": "O=C1CCC(N2C(=O)c3ccc(CNCCc4ccc(Cl)cc4)c4cccc2c34)C(=O)N1 (centres unmarked) [Compound 157]", "measuredMetric": "DC50", "observedValue": "< 100 nM"}
{"compound": "Cc1ccc(CN2CCC(c3ccc4c5c(cccc35)N(C3CCC(=O)NC3=O)C4=O)CC2)cc1F (centres unmarked) [Compound 176]", "measuredMetric": "DC50", "observedValue": "> 10000 nM"}
{"compound": "COc1ncc(CN2CCC(c3ccc4c5c(cccc35)N(C3CCC(=O)NC3=O)C4=O)CC2)cn1 (centres unmarked) [Compound 177]", "measuredMetric": "DC50", "observedValue": "> 10000 nM"}
{"compound": "CN1CC(c2ccc3c4c(cccc24)N(C2CCC(=O)NC2=O)C3=O)C1 (centres unmarked) [Compound 90]", "measuredMetric": "DC50", "observedValue": "< 100 nM"}
{"compound": "CCOC(=O)c1cccc(Cc2ccc3c4c(cccc24)N(C2CCC(=O)NC2=O)C3=O)c1 (centres unmarked) [Compound 62]", "measuredMetric": "DC50", "observedValue": "> 10000 nM"}
{"compound": "COC(=O)c1ccc(Nc2ccc3cccc4c3c2C(=O)N4C2CCC(=O)NC2=O)cc1 (centres unmarked) [Compound 186]", "measuredMetric": "DC50", "observedValue": "> 10000 nM"}
{"compound": "N#CC1(C(=O)N2CCC(n3cc(Cc4ccc5c6c(cccc46)C(=O)N5C4CCC(=O)NC4=O)cn3)CC2)CCC1 (centres unmarked) [Compound 200]", "measuredMetric": "DC50", "observedValue": "< 100 nM"}
{"compound": "CC(NC(=O)c1ccc2c3c(ccnc13)N(C1CCC(=O)NC1=O)C2=O)c1ccccc1 (centres unmarked) [Compound 185]", "measuredMetric": "DC50", "observedValue": "< 100 nM"}
{"compound": "CC1(n2cc(Cc3ccc4c5c(cccc35)C(=O)N4C3CCC(=O)NC3=O)cn2)CCN(C(=O)C2(C(F)(F)F)CC2)CC1 (centres unmarked) [Compound 203]", "measuredMetric": "DC50", "observedValue": "< 100 nM"}
{"compound": "CC1(n2cc(Cc3ccc4c5c(cccc35)C(=O)N4C3CCC(=O)NC3=O)cn2)CCN(C(=O)C2CC2)CC1 (centres unmarked) [Compound 205]", "measuredMetric": "DC50", "observedValue": "< 100 nM"}
{"compound": "N#Cc1ccc(Cc2ccc3c4c(cccc24)N(C2CCC(=O)NC2=O)C3=O)cc1 (centres unmarked) [Compound 66]", "measuredMetric": "DC50", "observedValue": "100 to 1000 nM"}
{"compound": "O=C1CCC(N2C(=O)c3ccc(CN4CC(Oc5ccccc5)C4)c4cccc2c34)C(=O)N1 (centres unmarked) [Compound 158]", "measuredMetric": "DC50", "observedValue": "< 100 nM"}
{"compound": "CC1(n2cc(Cc3ccc4c5c(cccc35)C(=O)N4C3CCC(=O)NC3=O)cn2)CCN(C(=O)C2(C#N)CCCCC2)CC1 (centres unmarked) [Compound 204]", "measuredMetric": "DC50", "observedValue": "< 100 nM"}
{"compound": "CCOC(=O)c1ccc(Cc2ccc3c4c(cccc24)N(C2CCC(=O)NC2=O)C3=O)cc1 (centres unmarked) [Compound 61]", "measuredMetric": "DC50", "observedValue": "100 to 1000 nM"}
{"compound": "CCOc1ccc(Cc2ccc3c4c(cccc24)N(C2CCC(=O)NC2=O)C3=O)cc1 (centres unmarked) [Compound 68]", "measuredMetric": "DC50", "observedValue": "> 10000 nM"}
{"compound": "Cc1cc(C)nc(-c2ccc3c4c(cccc24)N(C2CCC(=O)NC2=O)C3=O)n1 (centres unmarked) [Compound 87]", "measuredMetric": "DC50", "observedValue": "< 100 nM"}
{"compound": "CCOC(=O)c1cc(Cc2ccc3c4c(cccc24)N(C2CCC(=O)NC2=O)C3=O)ccc1F (centres unmarked) [Compound 69]", "measuredMetric": "DC50", "observedValue": "> 10000 nM"}
{"compound": "CC(C)OC1CCN(Cc2cc3c4c(cccc4c2)N(C2CCC(=O)NC2=O)C3=O)CC1 (centres unmarked) [Compound 161]", "measuredMetric": "DC50", "observedValue": "> 10000 nM"}
{"compound": "O=C1CCC(N2C(=O)c3ccc(C4(F)CCN(Cc5ccccc5)CC4)c4nccc2c34)C(=O)N1 (centres unmarked) [Compound 81]", "measuredMetric": "DC50", "observedValue": "< 100 nM"}
{"compound": "O=C1CCC(N2C(=O)c3ccc(CNCc4cc(F)ccc4F)c4cccc2c34)C(=O)N1 (centres unmarked) [Compound 155]", "measuredMetric": "DC50", "observedValue": "< 100 nM"}
{"compound": "CC1(n2cc(Cc3ccc4c5c(cccc35)C(=O)N4C3CCC(=O)NC3=O)cn2)CCN(c2ncccc2F)CC1 (centres unmarked) [Compound 208]", "measuredMetric": "DC50", "observedValue": "< 100 nM"}
{"compound": "O=C1CCC(N2C(=O)c3cccc4c(Cc5cnn(C6CCN(C(=O)C7(C(F)(F)F)CCC7)CC6)c5)ccc2c34)C(=O)N1 (centres unmarked) [Compound 201]", "measuredMetric": "DC50", "observedValue": "< 100 nM"}
{"compound": "O=C1CCC(N2C(=O)c3ccc(Br)c4cccc2c34)C(=O)N1 (centres unmarked) [Compound 224]", "measuredMetric": "DC50", "observedValue": "< 100 nM"}
{"compound": "CC1(C(=O)N2CCC(n3cc(Cc4ccc5c6c(cccc46)C(=O)N5[C@H]4CCC(=O)NC4=O)cn3)CC2)CCC1 [Compound 206]", "measuredMetric": "DC50", "observedValue": "< 100 nM"}
{"compound": "O=C1CCC(N2C(=O)c3ccc(CNC(=O)C(F)(F)c4ccc(Cl)cc4)c4cccc2c34)C(=O)N1 (centres unmarked) [Compound 64]", "measuredMetric": "DC50", "observedValue": "< 100 nM"}
{"compound": "CC(C)(C)OC(=O)N1CCC(n2cc(Cc3ccc4c5c(cccc35)C(=O)N4[C@H]3CCC(=O)NC3=O)cn2)CC1 [Compound 197]", "measuredMetric": "DC50", "observedValue": "< 100 nM"}
